Values compiled from the CheMixHub drug solubility set.

- method.summary: xn = mol fraction of the nth substance listed, in the solute-free solvent
- condition.notes: 303.15 K; x2 = 0.04165
quantity: solubility (g/100 g solution)
The answer should be written as a number, with no unit following it.

Consider the reported solubility (g/100 g solution) for these compounds:
compound="COc1cc2c(cc1OC)-c1cc3ccc(OC)c(OC)c3c[n+]1CC2.[Cl-] + CCO + O" readout_number=2.87
compound="CC(C)OC(=O)C(C)NP(=O)(OCC1OC(n2ccc(=O)[nH]c2=O)C(C)(F)C1O)Oc1ccccc1 (centres undefined) + CCO + O" readout_number=1.57
compound="Nc1cccc(S(=O)(=O)c2cccc(N)c2)c1 + CCO + O" readout_number=0.215

Let us examine a further case.
// solubility (g/100 g solution) lookup, compound = Cc1[nH]c(=O)c(C#N)cc1-c1ccncc1 + CCO + O , result: 0.00153

---

- method.summary: xn = mol fraction of the nth substance listed, in the solute-free solvent
- condition.notes: 303.15 K; x2 = 0.2
We use 3 as the dividing line for solubility (g/100 g solution): on or above the line is MET, below is NOT MET.

Answered cases to consult:
compound="S=c1[nH]ncs1 + CCO + O" category_label=MET
compound="CC(N)C(=O)O (stereo not given) + O + CCCO" category_label="NOT MET"
compound="CC(N)C(=O)O (stereo not given) + O + CC(C)=O" category_label="NOT MET"

## Task Entry S=c1[nH]ncs1 + CC(C)=O + O : is its solubility (g/100 g solution) no less than 3?
## Result MET

---

- method.summary: xn = mol fraction of the nth substance listed, in the solute-free solvent
- condition.notes: 298.15 K; x2 = 0.7297
Output satisfied for solubility (g/100 g solution) not less than 0.6; output not satisfied otherwise.

Would you please look over these solved cases?
compound="CN1CCN(C2=Nc3cc(Cl)ccc3Nc3ccccc32)CC1 + CC(C)O + O" category_label=satisfied
compound="Nc1nccnc1Cl + CC(C)O + O" category_label=satisfied
compound="c1ccc2[nH]c(-c3cscn3)nc2c1 + CC(C)O + O" category_label="not satisfied"
compound="Cc1[nH]c(=O)c(C#N)cc1-c1ccncc1 + CC(C)O + O" category_label="not satisfied"
compound="c1ccc2[nH]c(-c3cscn3)nc2c1 + CCCO + O" category_label=satisfied

Okay, now this compound:
## Task For this compound, is measured solubility (g/100 g solution) 0.6 or higher? Nc1cccc(S(=O)(=O)c2cccc(N)c2)c1 + CC(C)O + O
## Result satisfied

---

- method.summary: xn = mol fraction of the nth substance listed, in the solute-free solvent
- condition.notes: 283.15 K; x2 = 0.7
quantity: solubility (g/100 g solution)
// response body must contain only the number

Look over these answered cases.
molecule="S=c1[nH]ncs1 + CC(C)=O + O" quantity="solubility (g/100 g solution)" readout_number=24.3
molecule="Cc1ncc(C[n+]2csc(CCO)c2C)c(N)n1.O=[N+]([O-])[O-] + O + CO" quantity="solubility (g/100 g solution)" readout_number=1.41
molecule="CCCCCOC(=O)Nc1nc(=O)n(C2OC(C)C(O)C2O)cc1F (stereo not drawn) + CCOC(C)=O + CCCCCCC" quantity="solubility (g/100 g solution)" readout_number=0.34
molecule="CC(N)C(=O)O (stereo not drawn) + O + CCO" quantity="solubility (g/100 g solution)" readout_number=1.1
molecule="Cc1ncc(C[n+]2csc(CCO)c2C)c(N)n1.O=[N+]([O-])[O-] + O + CC(C)=O" quantity="solubility (g/100 g solution)" readout_number=1.24

Looking up S=c1[nH]ncs1 + CO + O , I see its solubility (g/100 g solution) listed as 8.43

Entry CC(N)C(=O)O (stereo not drawn) + O + CC(C)=O ; solubility (g/100 g solution) = 0.382

The reported solubility (g/100 g solution) of the molecule CC(N)C(=O)O (stereo not drawn) + O + CC(C)O was 0.772

According to the records, this molecule S=c1[nH]ncs1 + CCCO + O displays solubility (g/100 g solution) of 8.94

Record Cc1ncc(C[n+]2csc(CCO)c2C)c(N)n1.O=[N+]([O-])[O-] + O + CC(C)O , field solubility (g/100 g solution): 0.765
